Test system: SW1353
Assay Overview: relative viability vs DMSO control (72 h) (fraction); higher = more viable cells
Test Context: 0.00457 µM
Assay Metric: relative viability
Please reply with the value in numeric form only.

Record excerpt, results attached:
| Substance Smiles | relative viability |
| --- | --- |
| N#CC[C@H](C1CCCC1)n1cc(-c2ncnc3[nH]ccc23)cn1 | 1.09 |
| C[C@@H](c1ccc2nccn2c1)n1nnc2ncc(-c3cnn(C)c3)nc21 | 1.02 |
| COc1cc2c(Oc3ccc4[nH]c(C)cc4c3F)ncnc2cc1OCCCN1CCCC1 | 0.999 |
| C[C@@H]1COCCN1c1cc(-c2ccnn2C)c2ccnc(-c3ccn[nH]3)c2n1 | 0.978 |

Query string: What value of relative viability has been recorded for this entry: "C=CC(=O)N1CCC[C@@H](n2nc(-c3ccc(Oc4ccccc4)cc3)c3c(N)ncnc32)C1"
Result string: 1.01

Query string: Look up relative viability for this compound: "O=C(Nc1cnn2ccc(N3CCC[C@@H]3c3cc(F)ccc3F)nc12)N1CC[C@H](O)C1"
Result string: 1.01

Query string: Fill blank: measured relative viability of the compound "CC[C@H](Nc1ncnc2[nH]cnc12)c1nc2cccc(F)c2c(=O)n1-c1ccccc1" is ____.
Result string: 1.05

Query string: Value lookup for relative viability; key = "COc1c(OCCCN2CCOCC2)ccc2c1N=C(NC(=O)c1cnc(N)nc1)N1CCN=C21"
Result string: 0.917

----------
Tested on: MES-SA
Assay Overview: standardised AUC of viability dose-response curve (72 h) (fraction (0-1)); higher = less growth inhibition (more resistant)
Assay Metric: standardised AUC
Give only the figure.

| Substance Smiles | Measurement |
| --- | --- |
| COc1cc2nccc(Oc3ccc(NC(=O)Nc4cc(C)on4)c(Cl)c3)c2cc1OC | 0.931 |

Query string: // query standardised AUC value for entry "CC(C)(C)c1cc(NC(=O)Nc2ccc(-c3cn4c(n3)sc3cc(OCCN5CCOCC5)ccc34)cc2)no1"
Result string: 0.93

----------
System: KHOS-240S
Assay Overview: relative viability vs DMSO control (72 h) (fraction); higher = more viable cells
Test Context: 0.04115 µM
Counter-ions that a name gives are not always drawn.
relative viability values, listed per item
# answer = number (no unit)

Consider the worked cases shown below.
| Compound | Assayed Target | relative viability |
| --- | --- | --- |
| Cc1cc(C)c(/C=C2\C(=O)Nc3ccccc32)[nH]1 [Semaxanib] | KHOS-240S | 0.966 |
| C=CC(=O)N1CCC[C@@H](n2nc(-c3ccc(Oc4ccccc4)cc3)c3c(N)ncnc32)C1 [Ibrutinib] | KHOS-240S | 1.08 |
| COCc1c(-c2cc3cc(C)cc(OC)c3s2)c2c(N)ncnn2c1CN1CCNC(=O)C1 [Rogaratinib] | KHOS-240S | 0.995 |

Query string: Item Cc1cnc(Nc2ccc(OCCN3CCCC3)cc2)nc1Nc1cccc(S(=O)(=O)NC(C)(C)C)c1 [Fedratinib] has what recorded relative viability?
Result string: 1.05

Query string: For the compound Nc1cc(C(F)(F)F)c(-c2cc(N3CCOCC3)nc(N3CCOCC3)n2)cn1 [Buparlisib] , what relative viability is on record?
Result string: 1.03

Query string: Form field: reported relative viability of Cc1ccc(NC(=O)c2ccc(CN3CCN(C)CC3)cc2)cc1Nc1nc(-c2cccnc2)cs1 [Masitinib]
Result string: 1.01

Query string: Query (compound): CN1CCN(c2ccc3nc(-c4c(N)c5c(F)cccc5[nH]c4=O)[nH]c3c2)CC1 [Dovitinib] ; field requested: relative viability
Result string: 1.08

Query string: For O=C(Nc1cnn2ccc(N3CCC[C@@H]3c3cc(F)ccc3F)nc12)N1CC[C@H](O)C1 [Larotrectinib] , what is its reported relative viability?
Result string: 1.05

Query string: Please give the measured relative viability for this compound: CC[C@H](Nc1ncnc2[nH]cnc12)c1nc2cccc(F)c2c(=O)n1-c1ccccc1 [Idelalisib]
Result string: 1.08

Query string: What value of relative viability has been recorded for this entry: C=CC(=O)N1CCC([C@@H]2CCNc3c(C(N)=O)c(-c4ccc(Oc5ccccc5)cc4)nn32)CC1 [Zanubrutinib]
Result string: 0.962

Query string: Name the recorded relative viability for N#CC[C@H](C1CCCC1)n1cc(-c2ncnc3[nH]ccc23)cn1 [Ruxolitinib] .
Result string: 0.966

Query string: If you can, please state the reported relative viability value of C[C@@H](c1ccc2nccn2c1)n1nnc2ncc(-c3cnn(C)c3)nc21 [Volitinib] .
Result string: 1.1

Query string: Could you tell me which relative viability is on file for Cc1nc(NC(=O)N2CCC[C@H]2C(N)=O)sc1-c1ccnc(C(C)(C)C(F)(F)F)c1 [Alpelisib] ?
Result string: 1.01

Query string: Look up relative viability for this compound: CNC(=O)c1ccc(-c2cnc3ncc(Cc4ccc5ncccc5c4)n3n2)cc1F [Capmatinib]
Result string: 1.06

Query string: Suppose we examine the compound Cc1nc(-c2cn3c(n2)-c2ccc(-c4cnn(C(C)(C)C(N)=O)c4)cc2OCC3)n(C(C)C)n1 [Taselisib] ; what relative viability value has been reported?
Result string: 0.911

Query string: Need relative viability of COc1cccc2c1C(=O)c1c(O)c3c(c(O)c1C2=O)C[C@@](O)(C(=O)CO)C[C@@H]3O[C@H]1C[C@H](N)[C@H](O)[C@H](C)O1 [Doxorubicin Hydrochloride] , thanks.
Result string: 0.654

Query string: Give the measured relative viability of C[C@@H]1CCN(C(=O)CC#N)C[C@@H]1N(C)c1ncnc2[nH]ccc12 [Tofacitinib] .
Result string: 1.05

Query string: relative viability lookup needed for Cc1ccc(F)c(NC(=O)Nc2ccc(-c3cccc4[nH]nc(N)c34)cc2)c1 [Linifanib] , thanks.
Result string: 1.08

----------
Each entry below carries its recorded relative viability.
Tested on: HS729
Assay Overview: relative viability vs DMSO control (72 h) (fraction); higher = more viable cells
Test Context: 0.00457 µM

| Molecule | relative viability |
| --- | --- |
| Cc1cc(C)c(/C=C2\C(=O)Nc3ccccc32)[nH]1 [Semaxanib] | 0.889 |
| O=C(Nc1cnn2ccc(N3CCC[C@@H]3c3cc(F)ccc3F)nc12)N1CC[C@H](O)C1 [Larotrectinib] | 0.874 |
| Cc1cnc(Nc2ccc(OCCN3CCCC3)cc2)nc1Nc1cccc(S(=O)(=O)NC(C)(C)C)c1 [Fedratinib] | 0.928 |
| CC(=O)Nc1cccc(-n2c(=O)n(C3CC3)c(=O)c3c(Nc4ccc(I)cc4F)n(C)c(=O)c(C)c32)c1 [Trametinib] | 0.941 |
| Cc1cc(Nc2ncnc3ccc(NC4=NC(C)(C)CO4)cc23)ccc1Oc1ccn2ncnc2c1 [Tucatinib] | 0.987 |

Query string: What does the record list as relative viability for "C[C@@H]1COCCN1c1cc(-c2ccnn2C)c2ccnc(-c3ccn[nH]3)c2n1" ?
Result string: 0.873

Query string: I have this molecule here, C=CC(=O)Nc1cccc(Oc2nc(Nc3ccc(N4CCN(C)CC4)cc3)nc3ccsc23)c1 [Olmutinib] , and I need its recorded relative viability.
Result string: 0.988

Query string: Item CN1CCC(COc2cnc(-c3cccc(Cn4nc(-c5cccc(C#N)c5)ccc4=O)c3)nc2)CC1 [Tepotinib] has what recorded relative viability?
Result string: 0.983

----------
System: KHOS-NP
Assay Overview: relative viability vs DMSO control (72 h) (fraction); higher = more viable cells
Test Context: 0.00017 µM
# maps each entry to its relative viability
In your answer, state the number alone without any accompanying words.

// solved cases for relative viability follow
| Substance Smiles | Measurement |
| --- | --- |
| COc1c(OCCCN2CCOCC2)ccc2c1N=C(NC(=O)c1cnc(N)nc1)N1CCN=C21 | 1.1 |
| CN1CCC(COc2cnc(-c3cccc(Cn4nc(-c5cccc(C#N)c5)ccc4=O)c3)nc2)CC1 | 1.09 |
| CCc1cc2c(cc1N1CCC(N3CCOCC3)CC1)C(C)(C)c1[nH]c3cc(C#N)ccc3c1C2=O | 1.07 |

--- query ---
Query string: Report relative viability for "Cc1cc(C)c(/C=C2\C(=O)Nc3ccccc32)[nH]1" please.
Result string: 1.04

----------
Measured relative viability values are reported for all entries that follow.
System: SW684
Assay Overview: relative viability vs DMSO control (72 h) (fraction); higher = more viable cells
Test Context: 0.3704 µM

The following molecules have reported results that may help.
| Substance Smiles | Assayed Target | Assay Metric | Measurement |
| --- | --- | --- | --- |
| C[C@@H](c1ccc2nccn2c1)n1nnc2ncc(-c3cnn(C)c3)nc21 | SW684 | relative viability | 1.15 |
| Cc1ccc(F)c(NC(=O)Nc2ccc(-c3cccc4[nH]nc(N)c34)cc2)c1 | SW684 | relative viability | 1.14 |

Query string: Reported relative viability, molecule "CNC(=O)c1ccc(-c2cnc3ncc(Cc4ccc5ncccc5c4)n3n2)cc1F" : ____
Result string: 1.14

Query string: May I ask what relative viability has been recorded for "COc1cc2c(Oc3ccc4[nH]c(C)cc4c3F)ncnc2cc1OCCCN1CCCC1" ?
Result string: 1.19

Query string: Could you tell me which relative viability is on file for "C[C@@H]1CCN(C(=O)CC#N)C[C@@H]1N(C)c1ncnc2[nH]ccc12" ?
Result string: 1.22

Query string: Request the reported relative viability associated with "C[C@]1(O)C[C@@H](c2nc(-c3ccc4ccc(-c5ccccc5)nc4c3)c3c(N)nccn32)C1"
Result string: 1.11

Query string: Data request, read-out relative viability, for "C=CC(=O)N1CCC[C@@H](n2nc(-c3ccc(Oc4ccccc4)cc3)c3c(N)ncnc32)C1"
Result string: 1.24

Query string: Could you tell me which relative viability is on file for "Cc1nc(NC(=O)N2CCC[C@H]2C(N)=O)sc1-c1ccnc(C(C)(C)C(F)(F)F)c1" ?
Result string: 0.968

Where these numbers come from: the supplement of paper PMC10883282
